# EXPERIMENTAL TARGET: Serotonin 5-HT2A (Homo sapiens, UniProt P28223)
# Sequence (P28223 whole entry): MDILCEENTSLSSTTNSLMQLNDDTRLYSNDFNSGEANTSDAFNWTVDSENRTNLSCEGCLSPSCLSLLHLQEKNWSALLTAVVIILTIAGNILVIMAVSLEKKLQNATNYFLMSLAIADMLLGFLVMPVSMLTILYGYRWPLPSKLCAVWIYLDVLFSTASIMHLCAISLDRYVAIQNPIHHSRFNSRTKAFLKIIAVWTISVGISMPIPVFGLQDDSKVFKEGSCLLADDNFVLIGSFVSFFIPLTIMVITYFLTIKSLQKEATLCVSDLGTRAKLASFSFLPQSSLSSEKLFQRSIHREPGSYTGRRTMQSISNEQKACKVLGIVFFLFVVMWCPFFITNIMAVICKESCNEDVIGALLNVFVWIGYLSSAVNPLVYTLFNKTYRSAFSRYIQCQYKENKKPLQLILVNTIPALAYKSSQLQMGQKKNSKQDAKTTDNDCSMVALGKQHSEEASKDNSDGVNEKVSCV
# PROTOCOL: radioligand binding assay, Serotonin 5-HT2A
RECORDED ENDPOINT: pKi
Answer as the number alone; pKi is minus log10 of concentration in mol/L.

Requested read-out: pKi. Entry: CN1CCc2cccc3c2[C@H]1Cc1ccc(O)c(O)c1-3
7.57

###

# EXPERIMENTAL TARGET: Dopamine D3 (Homo sapiens)
# Sequence (P35462 whole entry): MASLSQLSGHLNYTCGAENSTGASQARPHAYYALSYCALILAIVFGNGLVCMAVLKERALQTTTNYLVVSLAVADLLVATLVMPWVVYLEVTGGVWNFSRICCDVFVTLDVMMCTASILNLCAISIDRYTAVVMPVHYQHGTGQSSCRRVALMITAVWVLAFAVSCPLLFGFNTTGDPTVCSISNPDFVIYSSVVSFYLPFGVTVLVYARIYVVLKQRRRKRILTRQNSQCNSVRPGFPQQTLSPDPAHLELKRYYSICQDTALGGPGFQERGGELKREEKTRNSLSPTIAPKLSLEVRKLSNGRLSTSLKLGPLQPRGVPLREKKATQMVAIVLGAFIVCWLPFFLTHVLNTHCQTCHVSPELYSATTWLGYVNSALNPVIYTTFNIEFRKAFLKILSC
RECORDED ENDPOINT: Ki
Your answer should be a number followed by the unit of measure.

Returns the measured Ki for the input molecule. Input: Oc1ccc2c(c1O)-c1cccc3c1C(C2)NCC3 (stereo not shown)
117 nM
